Numbers sourced from ChEMBL document CHEMBL5291721.

Collected AC50 values appear next to each entry.
# measured on: Delta-type opioid receptor (Homo sapiens, UniProt P41143)
# Sequence (P41143 whole entry): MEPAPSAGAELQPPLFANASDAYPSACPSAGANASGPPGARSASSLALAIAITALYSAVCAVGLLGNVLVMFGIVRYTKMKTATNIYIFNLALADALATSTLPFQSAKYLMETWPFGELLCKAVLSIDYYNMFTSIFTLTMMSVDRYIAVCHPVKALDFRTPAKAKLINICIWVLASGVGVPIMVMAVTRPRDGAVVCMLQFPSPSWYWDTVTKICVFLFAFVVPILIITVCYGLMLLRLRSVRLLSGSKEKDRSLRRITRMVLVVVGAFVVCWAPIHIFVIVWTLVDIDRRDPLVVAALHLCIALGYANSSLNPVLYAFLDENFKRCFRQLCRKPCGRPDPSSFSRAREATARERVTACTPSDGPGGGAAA

compound | AC50
CS(=O)(=O)c1ccc([C@@H](O)[C@@H](CO)NC(=O)C(Cl)Cl)cc1 | > 30 µM

Exam item: Value lookup for AC50; key = C[C@]12CCC(=O)C=C1CC[C@@H]1[C@@H]2CC[C@@]2(C)[C@H]1CC[C@]2(C)O
Marked response: > 30 µM

Exam item: Value lookup for AC50; key = CCCCCCCCOc1ccccc1C(=O)Nc1ccc(C(=O)OCC[N+](C)(CC)CC)cc1 [OTILONIUM BROMIDE]
Marked response: 29 µM

Exam item: Value lookup for AC50; key = O=C(O)CCCc1ccccc1
Marked response: > 30 µM

Exam item: Value lookup for AC50; key = CCOC(=O)[C@H](CCc1ccccc1)N[C@H]1CCCN2CCC[C@@H](C(=O)O)N2C1=O
Marked response: > 30 µM

Exam item: Value lookup for AC50; key = COc1c(C)c2c(c(O)c1C/C=C(\C)CCC(=O)OCCN1CCOCC1)C(=O)OC2 [MYCOPHENOLATE MOFETIL]
Marked response: > 30 µM

Exam item: Value lookup for AC50; key = CCC[C@@H]1C[C@@H](C(=O)N[C@@H]([C@H]2O[C@H](SC)[C@H](O)[C@@H](O)[C@H]2O)[C@H](C)Cl)N(C)C1
Marked response: > 30 µM

Exam item: Value lookup for AC50; key = N/N=c1/cc2c(n[nH]1)CCN(C(=O)c1ccccc1)C2
Marked response: > 30 µM

Exam item: Value lookup for AC50; key = Oc1ncnc2[nH]ncc12
Marked response: > 30 µM

Exam item: Value lookup for AC50; key = OCc1cc([C@@H](O)CNCCCCCCOCCOCc2c(Cl)cccc2Cl)ccc1O
Marked response: > 30 µM

Exam item: Value lookup for AC50; key = CN(CCCN1c2ccccc2CCc2ccccc21)CC(=O)c1ccc(Cl)cc1
Marked response: 30 µM

Exam item: Value lookup for AC50; key = COC(=O)C1=C(C)NC(C)=C(C(=O)OCC(C)C)C1c1ccccc1[N+](=O)[O-] (configuration not stated)
Marked response: > 30 µM

Exam item: Value lookup for AC50; key = COC(=O)[C@@H]1CC2=CC(=O)CC[C@]2(C)[C@@]23O[C@@H]2C[C@@]2(C)[C@@H](CC[C@@]24CCC(=O)O4)[C@H]13
Marked response: > 30 µM

Exam item: Value lookup for AC50; key = NS(=O)(=O)c1cc2c(cc1Cl)NCNS2(=O)=O [HYDROCHLOROTHIAZIDE]
Marked response: > 10 µM

---

# measured on: Sodium-dependent serotonin transporter (Homo sapiens)
# Sequence (P31645 whole entry): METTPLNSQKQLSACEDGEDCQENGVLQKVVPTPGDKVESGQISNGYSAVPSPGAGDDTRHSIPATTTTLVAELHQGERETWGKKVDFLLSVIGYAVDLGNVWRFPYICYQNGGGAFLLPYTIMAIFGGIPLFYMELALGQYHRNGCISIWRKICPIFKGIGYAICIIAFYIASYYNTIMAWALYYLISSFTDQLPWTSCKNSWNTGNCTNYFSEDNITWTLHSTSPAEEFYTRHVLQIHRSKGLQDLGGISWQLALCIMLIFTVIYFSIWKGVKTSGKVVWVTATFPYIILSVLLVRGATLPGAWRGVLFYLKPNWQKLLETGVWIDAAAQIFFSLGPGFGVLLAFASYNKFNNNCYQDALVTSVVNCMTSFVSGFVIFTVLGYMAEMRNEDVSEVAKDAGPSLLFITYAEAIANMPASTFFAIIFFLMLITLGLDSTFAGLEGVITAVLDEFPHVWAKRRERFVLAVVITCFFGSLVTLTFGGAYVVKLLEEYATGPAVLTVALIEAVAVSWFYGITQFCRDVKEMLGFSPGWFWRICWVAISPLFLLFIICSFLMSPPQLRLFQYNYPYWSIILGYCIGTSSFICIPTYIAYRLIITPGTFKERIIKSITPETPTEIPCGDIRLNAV
property label: AC50

molecule | AC50
CCOC(=O)C(c1c(O)c2ccccc2oc1=O)c1c(O)c2ccccc2oc1=O [ETHYL BISCOUMACETATE] | > 30 µM
CCC1(c2cccc(O)c2)CCCCN(C)C1 (stereo not given) [MEPTAZINOL] | 13.5 µM
O=C1CN=C(c2ccccc2)c2c(sc3c2CCCC3)N1 [BENTAZEPAM] | > 30 µM
CCCC1C(=O)N2C(N(C)C)=Nc3ccc(C)cc3N2C1=O (stereo not given) [APAZONE] | > 30 µM

Exam item: Value lookup for AC50; key = O=C1NCC2(CCN(CCc3ccccc3)CC2)O1 [FENSPIRIDE]
Marked response: > 30 µM
